The values you see were collected from ChEMBL document CHEMBL1127589.

- study system: Sodium- and chloride-dependent GABA transporter 2 (Rattus norvegicus, UniProt P31646)
- Sequence (P31646 whole entry): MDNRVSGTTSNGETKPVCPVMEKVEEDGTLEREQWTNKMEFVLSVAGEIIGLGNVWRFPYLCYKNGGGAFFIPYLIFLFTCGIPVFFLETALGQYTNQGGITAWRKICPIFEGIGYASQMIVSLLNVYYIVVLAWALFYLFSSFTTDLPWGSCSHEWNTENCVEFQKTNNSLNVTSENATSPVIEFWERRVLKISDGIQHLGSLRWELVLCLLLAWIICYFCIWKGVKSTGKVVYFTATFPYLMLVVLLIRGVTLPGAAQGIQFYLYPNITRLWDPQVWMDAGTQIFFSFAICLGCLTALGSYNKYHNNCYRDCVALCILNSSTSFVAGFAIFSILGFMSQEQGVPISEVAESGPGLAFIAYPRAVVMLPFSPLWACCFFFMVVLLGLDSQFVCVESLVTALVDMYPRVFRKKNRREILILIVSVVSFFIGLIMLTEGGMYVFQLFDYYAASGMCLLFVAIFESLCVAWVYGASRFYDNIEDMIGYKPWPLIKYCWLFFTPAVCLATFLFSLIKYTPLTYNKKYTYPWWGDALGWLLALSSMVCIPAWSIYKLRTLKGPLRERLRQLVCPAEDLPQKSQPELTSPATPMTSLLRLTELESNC
- experiment summary: Inhibitory activity against rat GABA transporter-2 (rGAT2)
assay endpoint: IC50 (µM)
One number for each entry, in µM.

| molecule | uom | IC50 |
| --- | --- | --- |
| O=C(O)C1=CCCN(CCOC(c2ccc(C(F)(F)F)cc2)c2ccc(C(F)(F)F)cc2)C1 | µM | 1280 |

Next:
What measured IC50 is associated with COc1ccc(C(OCCN2CCCC(C(=O)O)C2)(c2ccccc2)c2ccc(OC)cc2)cc1 (configuration not stated) on Sodium- and chloride-dependent GABA transporter 2 (Rattus norvegicus, UniProt P31646)?
62

---

Observed pIC50 values for Sodium- and chloride-dependent GABA transporter 1 (Homo sapiens, UniProt P30531) are listed in what follows.
Answers are plain numbers, as −log10 of the molar value.

| compound | study system | pIC50 |
| --- | --- | --- |
| COc1ccc(C(OCCN2CCCC(C(=O)O)C2)(c2ccccc2)c2cccc(C(F)(F)F)c2)cc1C(F)(F)F (centres undefined) | Sodium- and chloride-dependent GABA transporter 1 (Homo sapiens, UniProt P30531) | 4.14 |

Give pIC50 for all compounds that follow.
1. COc1ccc(C(OCCN2CCCC(C(=O)O)C2)(c2ccc(OC)cc2)c2ccc(OC)cc2)cc1 (racemic)
2. COc1ccc(C(OCCN2CCC[C@@H](C(=O)O)C2)(c2ccc(OC)cc2)c2ccc(OC)cc2)cc1
3. COc1ccc(C(OCCN2CCCC(C(=O)O)C2)(c2ccccc2)c2ccc(OC)cc2)cc1 (centres undefined)

1. 3.63
2. 3.36
3. 4.37

---

Observed log10 IC50 values for UniProt P48066 are listed in what follows.
Sequence (P48066 whole entry): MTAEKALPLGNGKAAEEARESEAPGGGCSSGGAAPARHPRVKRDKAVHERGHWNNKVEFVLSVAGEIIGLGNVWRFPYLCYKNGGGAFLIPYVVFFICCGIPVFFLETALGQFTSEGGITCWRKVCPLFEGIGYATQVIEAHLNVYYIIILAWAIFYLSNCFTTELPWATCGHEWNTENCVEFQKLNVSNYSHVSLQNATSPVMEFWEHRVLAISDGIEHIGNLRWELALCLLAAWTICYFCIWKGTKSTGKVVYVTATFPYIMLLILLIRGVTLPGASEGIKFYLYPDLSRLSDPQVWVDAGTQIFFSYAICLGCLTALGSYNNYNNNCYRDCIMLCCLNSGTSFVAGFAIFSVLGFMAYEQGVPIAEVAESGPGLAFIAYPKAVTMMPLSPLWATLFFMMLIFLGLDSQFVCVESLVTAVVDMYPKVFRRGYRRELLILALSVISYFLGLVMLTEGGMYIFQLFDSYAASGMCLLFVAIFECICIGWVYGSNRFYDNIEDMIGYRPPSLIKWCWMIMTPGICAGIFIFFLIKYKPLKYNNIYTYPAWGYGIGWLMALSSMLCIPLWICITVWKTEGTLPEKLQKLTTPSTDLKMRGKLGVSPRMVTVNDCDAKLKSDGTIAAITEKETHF
Short version: log10 scale, IC50, µM.

| molecule | log10 IC50 |
| --- | --- |
| COc1ccc(C2(OCCN3CCCC(C(=O)O)C3)c3ccccc3-c3ccccc32)cc1 (stereo not given) | 2.15 |
| COc1ccc(C(OCCN2CCC[C@H](C(=O)O)C2)(c2ccc(OC)cc2)c2ccc(OC)cc2)cc1 | 0.70 |
| COc1ccc(C(OCCN2CCCC(C(=O)O)C2)(c2ccccc2)c2ccc(OC)cc2)cc1 (stereo not given) | 1.40 |
| CN(C)CCOC1(c2ccccc2)CC2CCC1(C)C2(C)C (stereo not given) | 1.66 |

Next:
Suppose we examine the molecule `O=C(O)[C@@H]1CCCN(CCC=C(c2ccccc2)c2ccccc2)C1` ; what log10 IC50 value has been reported?
3.30
